test: Pharmacokinetic assessments; assay type: in vivo, patients; conditions: human, serum, oral, […]
experimentalReadout: Tmax (h)
Field: numeric (h). Do not append units.

Prompt: Looking for the measured Tmax of COc1cc2nccc(Oc3ccc(NC(=O)Nc4cc(C)on4)c(Cl)c3)c2cc1OC , can you help?
Response: 17.3

---

assay: Pharmacokinetic assessments; format: in vivo, patients; conditions: human, serum, intravenous, 25 mg/week
Tmax: recorded values

CO[C@H]1C[C@@H]2CC[C@@H](C)[C@@](O)(O2)C(=O)C(=O)N2CCCC[C@H]2C(=O)O[C@H]([C@H](C)C[C@@H]2CC[C@@H](OC(=O)C(C)(CO)CO)[C@H](OC)C2)CC(=O)[C@H](C)/C=C(\C)[C@@H](O)[C@@H](OC)C(=O)[C@H](C)C[C@H](C)/C=C/C=C/C=C/1C 1.81 h

Now turn to the next compound.
Prompt: Looking for the measured Tmax of CO[C@H]1C[C@@H]2CC[C@@H](C)[C@@](O)(O2)C(=O)C(=O)N2CCCC[C@H]2C(=O)O[C@H]([C@H](C)C[C@@H]2CC[C@@H](O)[C@H](OC)C2)CC(=O)[C@H](C)/C=C(\C)[C@@H](O)[C@@H](OC)C(=O)[C@H](C)C[C@H](C)/C=C/C=C/C=C/1C , can you help?
Response: 1.81 h

---

experiment: Pharmacokinetic assessments; format: in vivo, patients; conditions: human, serum, intravenous, 25 mg/week
experimentalReadout: Cmax

CO[C@H]1C[C@@H]2CC[C@@H](C)[C@@](O)(O2)C(=O)C(=O)N2CCCC[C@H]2C(=O)O[C@H]([C@H](C)C[C@@H]2CC[C@@H](O)[C@H](OC)C2)CC(=O)[C@H](C)/C=C(\C)[C@@H](O)[C@@H](OC)C(=O)[C@H](C)C[C@H](C)/C=C/C=C/C=C/1C 93.8 ng/mL

Now turn to the next compound.
Prompt: Looking for the measured Cmax of CO[C@H]1C[C@@H]2CC[C@@H](C)[C@@](O)(O2)C(=O)C(=O)N2CCCC[C@H]2C(=O)O[C@H]([C@H](C)C[C@@H]2CC[C@@H](OC(=O)C(C)(CO)CO)[C@H](OC)C2)CC(=O)[C@H](C)/C=C(\C)[C@@H](O)[C@@H](OC)C(=O)[C@H](C)C[C@H](C)/C=C/C=C/C=C/1C , can you help?
Response: 200 ng/mL

---

assay: Pharmacokinetic assessments; type: in vivo, patients; conditions: human, serum, intravenous, 15 mg/week
experimentalReadout: Cmax

Prompt: Looking for the measured Cmax of CO[C@H]1C[C@@H]2CC[C@@H](C)[C@@](O)(O2)C(=O)C(=O)N2CCCC[C@H]2C(=O)O[C@H]([C@H](C)C[C@@H]2CC[C@@H](O)[C@H](OC)C2)CC(=O)[C@H](C)/C=C(\C)[C@@H](O)[C@@H](OC)C(=O)[C@H](C)C[C@H](C)/C=C/C=C/C=C/1C , can you help?
Response: 51.3 ng/mL

Prompt: Looking for the measured Cmax of CO[C@H]1C[C@@H]2CC[C@@H](C)[C@@](O)(O2)C(=O)C(=O)N2CCCC[C@H]2C(=O)O[C@H]([C@H](C)C[C@@H]2CC[C@@H](OC(=O)C(C)(CO)CO)[C@H](OC)C2)CC(=O)[C@H](C)/C=C(\C)[C@@H](O)[C@@H](OC)C(=O)[C@H](C)C[C@H](C)/C=C/C=C/C=C/1C , can you help?
Response: 164 ng/mL
